system: SK-BR-3 tumor cells (human breast cancer cells); assay: In vitro inhibition of compound of formula (D) on tumor cell proliferation (CTG), SK-BR-3; type: cell-based; details: 144 h, SK-BR-3, 6 days of cultivation, CTG reagent, read-out: IC50 of in vitro inhibition on the proliferation of SK-BR-3 cells
ATTRIBUTE_MEASURED: IC50 (nM)
Use nM as the unit, but write only the number.

CC[C@@]1(O)C(=O)OCc2c1cc1n(c2=O)Cc2c-1nc1cc(F)c(C)c3c1c2[C@@H](NC(=O)C1(CO)CCC1)CC3 :: 1

Now for a further compound.
Q: Would you mind telling me what IC50 value was observed for `CC[C@@]1(O)C(=O)OCc2c1cc1n(c2=O)Cc2c-1nc1cc(F)c(C)c3c1c2[C@@H](NC(=O)C1(O)CCC1)CC3` ?
Ans: 1
